// provenance: patent US20250170141A1

We begin with a simple list: items and their reported IC50.
target: human MRGPRX2 (Homo sapiens, UniProt Q96LB1); assay: MRGPRX2 activity: IP-One Gq HTRF assay in CHO cells, antagonism versus 0.3 uM Cortistatin-14; conditions: versus 0.3 uM Cortistatin-14 agonist, CHO cells expressing human MRGPRX2, read-out: MRGPRX2 Antagonist Activity
metric_name: IC50

1. CC(C)CC(C)c1c(F)ccc2c1NC(NCc1cccc(F)c1)=NS2(=O)=O (stereo not shown); < 100 nM
2. O=S1(=O)N=C(NCc2ncccc2C(F)(F)F)Nc2c(Cc3ccccc3Cl)cccc21; < 100 nM
3. Cc1c(F)cccc1CNC1=NS(=O)(=O)c2ccc(F)c(C(C)c3cccc(Cl)c3Cl)c2N1 (stereo not shown); < 100 nM
4. Cc1cccc(C)c1Cc1c(F)ccc2c1NC(NCc1ncccc1F)=NS2(=O)=O; < 100 nM

----------
target: UniProtKB Q96LB1; experiment: MRGPRX2 activity: IP-One Gq HTRF assay in CHO cells, antagonism versus 0.3 uM Cortistatin-14; conditions: versus 0.3 uM Cortistatin-14 agonist, CHO cells expressing human MRGPRX2, read-out: MRGPRX2 Antagonist Activity
Parameter IC50: see the listing below.
metric_name: IC50

1. O=S1(=O)N=C(NCc2ncccc2F)Nc2c1ccc(F)c2Oc1c(F)cccc1Cl; 100 to 500 nM
2. COc1cccc(CNC2=NS(=O)(=O)c3ccc(F)c(Oc4ccccc4Cl)c3N2)c1; 100 to 500 nM
3. COc1ccc(Oc2c(F)ccc3c2NC(NCc2ncccc2F)=NS3(=O)=O)cc1; 1000 to 2500 nM

----------
molecular target: human MRGPRX2 (Homo sapiens); construct: expressed in transfected cells; host or cells: CHO cells, stably transfected (G418 and Hygromycin B selection); test: MRGPRX2 activity: IP-One Gq HTRF assay in CHO cells, antagonism versus 0.3 uM Cortistatin-14; format: cell-based; conditions: versus 0.3 uM Cortistatin-14 agonist, CHO cells expressing human MRGPRX2, read-out: MRGPRX2 Antagonist Activity
metric_name: IC50

1) O=S1(=O)N=C(NCc2cccc(Cl)c2F)Nc2c1cc(F)c(F)c2Cc1ccccc1Cl; 0.1 to 0.5 µM
2) COCCNC1=NS(=O)(=O)c2cccc(C(=O)c3ccccc3Cl)c2N1; 1 to 2.5 µM
3) O=S1(=O)N=C(NCc2ccc(Cl)c(Cl)c2)Nc2c(Cc3ccccc3Cl)cccc21; < 0.1 µM

----------
biological target: human MRGPRX2 (Homo sapiens, UniProt Q96LB1); assay: MRGPRX2 activity: IP-One Gq HTRF assay in CHO cells, antagonism versus 0.3 uM Cortistatin-14; conditions: versus 0.3 uM Cortistatin-14 agonist, CHO cells expressing human MRGPRX2, read-out: MRGPRX2 Antagonist Activity
The following compounds are listed with their measured IC50 values.
metric_name: IC50

1. O=S1(=O)N=C(NCc2cc(F)ccc2F)Nc2c1ccc(F)c2Oc1ccccc1Cl [Compound 1-23]; < 100 nM
2. O=S1(=O)N=C(NCc2ccccc2C(F)(F)F)Nc2c1cc(F)c(F)c2Cc1ccccc1Cl [Compound 4-16]; 100 to 500 nM
3. O=S1(=O)N=C(NCc2ccc(F)cc2Cl)Nc2c(Cc3ccccc3Cl)cccc21 [Compound 12-4]; < 100 nM
4. Cc1ccccc1Cc1cccc2c1NC(NCc1ccccc1F)=NS2(=O)=O [Compound 6-7]; < 100 nM
5. O=S1(=O)N=C(NCc2ccccc2F)Nc2c1ccc(F)c2Cc1ccccc1Cl [Compound 4-4]; 100 to 500 nM
6. O=S1(=O)N=C(NCc2cccc3ccccc23)Nc2c1ccc(F)c2Oc1ccccc1Cl [Compound 2-6]; 100 to 500 nM
7. CC(c1ccccc1F)c1c(F)ccc2c1NC(NCc1ccccc1)=NS2(=O)=O (stereo not shown) [Compound 7-4]; < 100 nM
8. CC(c1ccccc1F)c1c(F)ccc2c1NC(NCc1cccc(F)n1)=NS2(=O)=O (stereo not shown) [Compound 9-5]; < 100 nM
9. O=S1(=O)N=C(NCc2ccccc2F)Nc2c(C3(c4ccccc4)CC3)cccc21 [Compound 6-19]; < 100 nM
10. CC(c1ccccc1F)c1c(F)ccc2c1NC(NCc1cccc(F)c1)=NS2(=O)=O (single isomer, unassigned) [Compound 10-5A]; < 100 nM
11. O=S1(=O)N=C(NCc2ncccc2F)Nc2c1ccc(F)c2Oc1cccc(Cl)c1 [Compound 2-10]; 100 to 500 nM
12. O=S1(=O)N=C(NCc2ncccc2F)Nc2c1ccc(F)c2Oc1cc(Cl)ccc1Cl [Compound 1-38]; < 100 nM
13. COc1ccc(F)c(CNC2=NS(=O)(=O)c3ccc(F)c(Oc4ccccc4Cl)c3N2)n1 [Compound 1-21]; 501 to 1000 nM
14. COc1cc(F)ccc1CNC1=NS(=O)(=O)c2cccc(Cc3ccccc3Cl)c2N1 [Compound 12-9]; < 100 nM
15. Cc1ccc(CNC2=NS(=O)(=O)c3cccc(Cc4ccccc4Cl)c3N2)c(C)c1 [Compound 12-8]; < 100 nM
16. O=S1(=O)N=C(NCc2ncccc2Cl)Nc2c1ccc(F)c2Oc1ccccc1Cl [Compound 2-2]; < 100 nM
17. COc1ccccc1CNC1=NS(=O)(=O)c2cccc(Cc3ccccc3Cl)c2N1 [Compound 12-24]; < 100 nM
18. CC(c1ccccc1F)c1c(F)ccc2c1NC(NCc1cccc(Cl)c1F)=NS2(=O)=O (stereo not shown) [Compound 9-2]; < 100 nM
19. O=S1(=O)N=C(NCc2cccnc2F)Nc2c1ccc(F)c2Oc1ccccc1Cl [Compound 2-5]; 100 to 500 nM
20. O=S1(=O)N=C(NCc2cnccc2C(F)(F)F)Nc2c1ccc(F)c2Oc1ccccc1Cl [Compound 1-28]; 501 to 1000 nM
21. Cc1ccccc1CNC1=NS(=O)(=O)c2cccc(Cc3ccccc3Cl)c2N1 [Compound 12-19]; < 100 nM
22. O=S1(=O)N=C(NCc2ncccc2F)Nc2c(Oc3ccccc3Cl)cc(F)cc21 [Compound 1-264]; < 100 nM
23. O=S1(=O)N=C(NCc2ccccc2C(F)(F)F)Nc2c(Cc3ccccc3Cl)cccc21 [Compound 12-27]; < 100 nM
24. CC(c1c(F)ccc2c1NC(NCc1cccc(F)c1)=NS2(=O)=O)C1CCOCC1 (stereo not shown) [Compound 22-3]; < 100 nM
25. Cc1ccc(CNC2=NS(=O)(=O)c3cccc(Cc4ccccc4Cl)c3N2)c(F)c1 [Compound 12-6]; < 100 nM
26. CC(c1ccccc1F)c1c(F)c(F)cc2c1NC(NCc1ncccc1F)=NS2(=O)=O (stereo not shown) [Compound 9-7]; < 100 nM
27. CC(c1c(F)ccc2c1NC(NCc1cccc(F)c1)=NS2(=O)=O)c1c[nH]c2ccccc12 (stereo not shown) [Compound 22-18]; 100 to 500 nM
28. O=S1(=O)N=C(NCc2ccccc2F)Nc2c(Cc3ccc(F)cc3)cccc21 [Compound 6-14]; < 100 nM

----------
assay: Mouse Pharmacokinetic Studies (50 mg/kg oral gavage, plasma LC-MS/MS); format: in vivo; settings: male C57BL/6 mice, non-fasted, 50 mg/kg
Reported Cmax by item:
metric_name: Cmax (µM)

1. CC(c1ccccc1F)c1c(F)ccc2c1NC(NCc1ncccc1F)=NS2(=O)=O (single isomer, unassigned) [Compound 10-1B]; 14
2. Cc1c(F)cccc1CNC1=NS(=O)(=O)c2ccc(F)c(C(C)c3ccccc3F)c2N1 (single isomer, unassigned) [Compound 10-3B]; 4.2
3. Cc1c(F)cccc1CNC1=NS(=O)(=O)c2ccc(F)c(C(C)c3ccccc3F)c2N1 (single isomer, unassigned) [Compound 10-3A]; 0.37

----------
# IC50 annotations
Target: human MRGPRX2 (Homo sapiens, UniProt Q96LB1)
Sequence (Q96LB1 1-330): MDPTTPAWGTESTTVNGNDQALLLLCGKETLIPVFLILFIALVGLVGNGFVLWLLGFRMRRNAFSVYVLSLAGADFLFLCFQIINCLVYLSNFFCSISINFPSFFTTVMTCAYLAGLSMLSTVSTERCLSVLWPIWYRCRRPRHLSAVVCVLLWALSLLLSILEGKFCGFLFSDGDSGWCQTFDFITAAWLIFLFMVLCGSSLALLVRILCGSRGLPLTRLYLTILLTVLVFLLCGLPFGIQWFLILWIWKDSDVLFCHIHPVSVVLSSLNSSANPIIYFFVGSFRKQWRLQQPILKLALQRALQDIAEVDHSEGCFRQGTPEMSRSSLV
Assay: MRGPRX2 activity: IP-One Gq HTRF assay in CHO cells, antagonism versus 0.3 uM Cortistatin-14
Conditions: versus 0.3 uM Cortistatin-14 agonist, CHO cells expressing human MRGPRX2, read-out: MRGPRX2 Antagonist Activity
metric_name: IC50

1) CC(c1ccccc1F)c1c(F)ccc2c1NC(NCc1cccc(F)n1)=NS2(=O)=O (single isomer, unassigned) [Compound 10-2B]; < 0.1 µM
2) N#Cc1cccc(Oc2c(F)ccc3c2NC(NCc2ncccc2F)=NS3(=O)=O)c1; 0.501 to 1 µM
3) Cc1cc(F)c(Oc2ccccc2Cl)c2c1S(=O)(=O)N=C(NCc1ncccc1F)N2; 0.1 to 0.5 µM
4) Cc1ccc(C(C)c2c(F)ccc3c2NC(NCc2cccc(F)c2)=NS3(=O)=O)o1 (stereo not drawn); < 0.1 µM
5) Cc1cccnc1CNC1=NS(=O)(=O)c2cccc(Cc3ccccc3Cl)c2N1; < 0.1 µM
6) O=S1(=O)N=C(NCc2cccc(F)n2)Nc2c1ccc(Cl)c2Oc1ccccc1Cl; < 0.1 µM
